Measured Target: SARS-CoV-2 Wuhan-Hu-1 RBD (SARS-CoV-2, Wuhan-Hu-1 (GenBank …, UniProt P0DTC2))
Measurement Protocol: cell-based or functional assay
Attribute Measured: neutralisation IC50, Wuhan-Hu-1 pseudovirus

[
  {
    "Binder": "JR179 (antibody, V domains shown) VH: QVQLVQSGAEVKKPGASVKVSCKASGYTFSSFAISWVRQAPGQGLEWMGWISAYNGNTNYAQNLQGRVTMTTDTSTSTVYMELRSLRSDDTAVYYCAREAGLTGNLDYWGQGTLVTVSS VL: SYELTQPPSVSVAPGQTARITCGGNNIGSKNVHWYQQKPGQAPVVVVYDDSDRPSGIPERFSGSNSGNTATLTISRVEAGDEADYYCQVWDSRSYHHVVFGGGTKLTVL",
    "Measured Value": "> 1 µg/mL"
  },
  {
    "Binder": "JR081 (antibody, V domains shown) VH: QVQLVQSGAEVKKPGASVKVSCKASGYIFTAYYMHWVRQAPGQGLEWMGWINPMSGATNYAQRFQGRVTMTRVTMTRDTSITTAYMELSRLRSDDTAVYYCARVNHIVGVTSSDPVYGMDVWGQGTTVTVSS VL: QSALTQPASVSGSPGQSITISCTGTSSDVGGYKYVSWYQQHPGKAPKLMIYEVSNRPSGVSSRFSGSKSGYTASLTISGLQAEDEADYYCSSYTNSPTLFYVFGTGTKVTVL",
    "Measured Value": "0.00347 µg/mL"
  },
  {
    "Binder": "JR069 (antibody, V domains shown) VH: EVQLVESGGGLVQPGGSLRLSCAASGFSFSNYDMLWLRQITGRGLEWVSLIGTSGDTYYSDSVKGRFTISRENGKNSLYLQMNRLRAGDTAVYYCARGNFDTSGFYSYFDTWGQGTLVTVSS VL: DIQLTQSPSYLSASVGDRVTITCRASQTIKNYLNWYQQKPGKAPKLLIYAVSTLQNGVSSRFRGSGSGTDFTLTISSLQPEDFATYYCQQSYTIPPYTFGQGTKLEIK",
    "Measured Value": "> 1 µg/mL"
  }
]

Reference for the values: paper PMC9253517
